# TESTED TARGET: Abf1 (UniProt P14164)
# Sequence: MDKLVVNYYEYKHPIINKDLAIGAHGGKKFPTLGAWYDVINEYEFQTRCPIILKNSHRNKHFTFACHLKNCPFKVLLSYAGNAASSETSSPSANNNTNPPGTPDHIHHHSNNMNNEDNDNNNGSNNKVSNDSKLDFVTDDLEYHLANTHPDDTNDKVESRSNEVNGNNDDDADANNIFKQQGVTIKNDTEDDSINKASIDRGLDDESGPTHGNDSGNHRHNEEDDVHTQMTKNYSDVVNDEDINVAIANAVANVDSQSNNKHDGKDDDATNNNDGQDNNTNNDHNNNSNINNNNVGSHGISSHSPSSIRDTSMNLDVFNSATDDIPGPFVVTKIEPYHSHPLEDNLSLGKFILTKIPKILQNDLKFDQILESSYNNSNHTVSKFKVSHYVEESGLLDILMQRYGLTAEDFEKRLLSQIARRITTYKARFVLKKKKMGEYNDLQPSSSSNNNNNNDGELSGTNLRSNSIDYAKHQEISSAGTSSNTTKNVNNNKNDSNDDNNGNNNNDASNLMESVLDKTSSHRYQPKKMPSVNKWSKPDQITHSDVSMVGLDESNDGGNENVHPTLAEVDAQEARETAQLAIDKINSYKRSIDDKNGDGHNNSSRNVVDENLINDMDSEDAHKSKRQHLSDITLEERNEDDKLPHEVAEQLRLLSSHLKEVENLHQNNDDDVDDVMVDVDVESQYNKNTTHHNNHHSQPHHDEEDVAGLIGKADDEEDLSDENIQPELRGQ
# PROCEDURE TEXT: PBM E-score (8-mer binding enrichment) (E-score (-0.5 to 0.5)); higher = stronger / more preferred TF binding
# CONDITION INFO: protein concentration: 200 nM; construct: GST-full length
The full ranking holds about 33,000 sequences; the median of “E-score (-0.5 to 0.5)” is about -0.015, and the highest 2% start at about 0.3. For the sample, the highest values were picked, then their nearest neighbours and some sequences at random.
Please note: y applies when PBM E-score is 0.1 or greater, and n applies otherwise.

GAATGATC ... y
ACATACGA ... y

Query: Please check the record `AAATACGG` and state if its PBM E-score is at or above 0.1.
Result: y

Query: Another sequence to check: `ACATGATG`
Result: y

Query: Moving on to `GCCTACGA`
Result: y

----------
# TESTED TARGET: Abf1 (UniProt P14164)
# Sequence: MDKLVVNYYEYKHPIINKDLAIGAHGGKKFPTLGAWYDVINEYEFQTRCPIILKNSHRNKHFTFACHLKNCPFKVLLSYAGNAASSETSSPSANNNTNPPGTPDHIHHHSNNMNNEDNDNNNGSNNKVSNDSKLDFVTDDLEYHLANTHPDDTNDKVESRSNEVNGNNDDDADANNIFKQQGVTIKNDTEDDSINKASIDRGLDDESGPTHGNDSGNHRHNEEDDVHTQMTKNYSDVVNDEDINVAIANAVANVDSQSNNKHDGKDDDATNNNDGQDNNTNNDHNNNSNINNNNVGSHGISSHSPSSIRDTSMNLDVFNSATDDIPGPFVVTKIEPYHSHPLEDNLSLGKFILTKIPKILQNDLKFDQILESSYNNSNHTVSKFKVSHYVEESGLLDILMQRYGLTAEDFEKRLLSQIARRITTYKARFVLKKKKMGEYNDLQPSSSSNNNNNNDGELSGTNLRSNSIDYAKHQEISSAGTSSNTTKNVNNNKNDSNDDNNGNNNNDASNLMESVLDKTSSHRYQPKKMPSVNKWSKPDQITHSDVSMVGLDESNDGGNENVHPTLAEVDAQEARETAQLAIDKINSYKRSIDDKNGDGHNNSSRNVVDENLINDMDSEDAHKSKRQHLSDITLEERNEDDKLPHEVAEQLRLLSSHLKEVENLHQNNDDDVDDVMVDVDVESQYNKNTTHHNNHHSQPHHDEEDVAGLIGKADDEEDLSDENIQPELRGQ
# PROCEDURE TEXT: PBM E-score (8-mer binding enrichment) (E-score (-0.5 to 0.5)); higher = stronger / more preferred TF binding
# CONDITION INFO: protein concentration: 200 nM; construct: GST-full length
The full ranking holds about 33,000 sequences; the median of “E-score (-0.5 to 0.5)” is about -0.015, and the highest 2% start at about 0.3. Only a selection was taken, and the highest values are over-represented in it overall.
Range-based classes on measured PBM E-score: low end (below 0.02), middle (0.02 to below 0.2), high end (0.2 or more)

Query: Hi there! Could you help me figure out the category for `CAAATCAC` please?
Result: middle

Query: And `CGAGCGGC` ?
Result: low end

Query: Also `AATCCAGT` ?
Result: middle

Query: Moving on to `AACCGATT`
Result: middle

----------
# TESTED TARGET: Abf1 (UniProt P14164)
# Sequence: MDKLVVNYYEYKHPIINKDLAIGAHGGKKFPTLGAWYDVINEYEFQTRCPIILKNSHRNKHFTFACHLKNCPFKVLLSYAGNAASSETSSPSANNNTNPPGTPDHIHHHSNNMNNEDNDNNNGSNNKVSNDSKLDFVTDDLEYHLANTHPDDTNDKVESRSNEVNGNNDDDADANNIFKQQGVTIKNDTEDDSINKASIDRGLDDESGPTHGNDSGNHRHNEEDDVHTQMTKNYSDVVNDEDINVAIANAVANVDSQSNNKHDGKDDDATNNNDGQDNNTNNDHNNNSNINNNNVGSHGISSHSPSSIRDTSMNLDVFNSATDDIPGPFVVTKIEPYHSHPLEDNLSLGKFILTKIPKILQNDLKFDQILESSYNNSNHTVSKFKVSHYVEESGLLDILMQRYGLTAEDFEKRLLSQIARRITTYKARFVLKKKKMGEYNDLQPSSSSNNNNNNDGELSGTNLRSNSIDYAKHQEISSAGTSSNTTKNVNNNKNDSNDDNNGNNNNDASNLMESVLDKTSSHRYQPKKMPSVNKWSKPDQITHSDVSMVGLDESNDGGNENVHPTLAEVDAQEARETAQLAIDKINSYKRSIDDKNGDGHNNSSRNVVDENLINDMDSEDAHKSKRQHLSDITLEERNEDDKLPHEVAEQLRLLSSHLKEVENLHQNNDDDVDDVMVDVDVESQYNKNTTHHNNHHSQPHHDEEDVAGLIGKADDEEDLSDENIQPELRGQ
# PROCEDURE TEXT: PBM E-score (8-mer binding enrichment) (E-score (-0.5 to 0.5)); higher = stronger / more preferred TF binding
# CONDITION INFO: protein concentration: 200 nM; construct: GST-full length
The full ranking holds about 33,000 sequences; the median of “E-score (-0.5 to 0.5)” is about -0.015, and the highest 2% start at about 0.3. Only a selection was taken, and the highest values are over-represented in it overall.
MEASURED ENDPOINT: PBM E-score

Illustrative cases are given below, each with its answer.
TACAGCCA ... -0.224
CAGTGAAA ... 0.0736
CGCACGAG ... 0.156

Query: Value lookup for PBM E-score; key = `ATGATGAC`
Result: 0.306

Query: Another sequence to look at: `GGATGAGA`
Result: -0.0398

Query: Please answer likewise for `TAGTGACA`
Result: 0.414

Query: Another sequence: `ACCTGCGT`
Result: -0.045

----------
# TESTED TARGET: Abf1 (UniProt P14164)
# Sequence: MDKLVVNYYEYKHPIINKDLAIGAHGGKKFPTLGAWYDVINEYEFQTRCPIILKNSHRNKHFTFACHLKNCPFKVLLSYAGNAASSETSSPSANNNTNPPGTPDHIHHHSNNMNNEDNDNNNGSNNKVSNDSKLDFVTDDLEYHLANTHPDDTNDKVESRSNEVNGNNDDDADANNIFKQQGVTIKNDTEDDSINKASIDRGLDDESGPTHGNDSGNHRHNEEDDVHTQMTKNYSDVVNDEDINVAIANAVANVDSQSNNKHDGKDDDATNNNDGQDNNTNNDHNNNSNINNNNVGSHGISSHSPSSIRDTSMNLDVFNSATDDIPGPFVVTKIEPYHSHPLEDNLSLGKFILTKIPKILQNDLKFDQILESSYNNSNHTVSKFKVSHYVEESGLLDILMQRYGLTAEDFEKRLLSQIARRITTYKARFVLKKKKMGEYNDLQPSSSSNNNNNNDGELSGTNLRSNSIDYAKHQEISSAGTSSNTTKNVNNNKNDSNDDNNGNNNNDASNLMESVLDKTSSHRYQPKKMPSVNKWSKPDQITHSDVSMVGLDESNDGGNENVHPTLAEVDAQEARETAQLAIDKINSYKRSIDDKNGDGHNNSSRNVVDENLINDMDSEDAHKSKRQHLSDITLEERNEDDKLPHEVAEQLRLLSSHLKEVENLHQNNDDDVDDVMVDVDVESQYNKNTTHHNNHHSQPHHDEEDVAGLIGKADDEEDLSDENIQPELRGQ
# PROCEDURE TEXT: PBM E-score (8-mer binding enrichment) (E-score (-0.5 to 0.5)); higher = stronger / more preferred TF binding
# CONDITION INFO: protein concentration: 200 nM; construct: GST-full length
In all, about 33,000 sequences were measured (“E-score (-0.5 to 0.5)”: median about -0.015, highest 2% from about 0.3 on). This excerpt belongs to a sample that is enriched for the highest values.
Listing: PBM E-score of selected sequences

Example entries begin here.
AAGACAAA ... 0.127
GGGATCAC ... -0.0214
ATAATGAC ... 0.258
ATGACAAT ... 0.344
CACGTGCA ... 0.139

Query: Would you kindly share the measured PBM E-score for `ACGATAAC` ?
Result: 0.224

Query: Repeat for the following sequence: `CACGACCG`
Result: -0.0182

Query: Lookup `TAACTCTA`
Result: -0.0858

Query: Also check `AATAACGC`
Result: -0.118

Query: Please answer likewise for `CCCTCTAA`
Result: -0.23

Query: Repeat for the following sequence: `CACGACGG`
Result: 0.356
